Origin of values: patent US8828985B2

- tgt: human 11β-HSD1 (Homo sapiens, UniProt P28845)
- Sequence (P28845 whole entry): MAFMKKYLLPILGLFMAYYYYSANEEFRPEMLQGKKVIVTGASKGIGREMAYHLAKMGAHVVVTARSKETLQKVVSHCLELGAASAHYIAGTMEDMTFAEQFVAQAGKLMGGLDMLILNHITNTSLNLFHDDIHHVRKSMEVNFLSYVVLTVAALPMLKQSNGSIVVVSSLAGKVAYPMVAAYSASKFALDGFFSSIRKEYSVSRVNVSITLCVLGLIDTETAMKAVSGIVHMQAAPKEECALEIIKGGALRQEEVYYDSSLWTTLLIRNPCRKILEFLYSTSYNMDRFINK
- assay comment: biochemical
- test context: 1.5 h, read-out: Biological Test Example 2 Average % inhibition at 100 nm, at 100 nm
measured metric: inhibition at 0.1 µM (%)

[[record]]
molecule = "CNC(=O)c1cc(Cl)cnc1N[C@@H]1CCN(C(=O)O[C@H]2C3CC4CC2C[C@](O)(C4)C3)C1 [Example 98]"
reported_value = 91.1

[[record]]
molecule = "O=C(NC1CC1)c1ccc2nc(N[C@@H]3CCN(C(=O)O[C@H]4C5CC6CC4C[C@](O)(C6)C5)C3)sc2c1 [Example 103]"
reported_value = 88.8

[[record]]
molecule = "N#Cc1cccnc1NC1CCN(C(=O)O[C@H]2C3CC4CC2C[C@](C(N)=O)(C4)C3)CC1 [Example 68]"
reported_value = 90.7

[[record]]
molecule = "N#Cc1ccc2nc(N[C@@H]3CCN(C(=O)O[C@H]4C5CC6CC4C[C@](O)(C6)C5)C3)sc2c1 [Example 94]"
reported_value = 90.8


* * *

- tgt: human 11β-HSD1 (Homo sapiens, UniProt P28845)
- test context: at 100 nm
measured metric: Biological Test Example 2 Average % inhibition at 100 nm (%)

[[record]]
compound = "CC1(NC(=O)OC(C)(C)C)CCN(C(=O)OC2C3CC4CC2CC(C(N)=O)(C4)C3)C1 (single isomer, unassigned) [Example 22 Isomer 2]"
unit_string = "%"
reported_value = 95.5

[[record]]
compound = "CC(C)OC(=O)N[C@@H]1CCN(C(=O)OC2C3CC4CC2CC(C(N)=O)(C4)C3)C1 (single isomer, unassigned) [Example 24 Isomer 2]"
unit_string = "%"
reported_value = 87.4

[[record]]
compound = "CC(C)(C)OC(=O)NC1(Cc2ccccc2)CCN(C(=O)OC2C3CC4CC2CC(C(N)=O)(C4)C3)C1 (single isomer, unassigned) [Example 29 Isomer 2.1]"
unit_string = "%"
reported_value = 96.9

[[record]]
compound = "CC1(NC(=O)OC(C)(C)C)CCN(C(=O)OC2C3CC4CC2CC(C(N)=O)(C4)C3)C1 (single isomer, unassigned) [Example 22 Isomer 2.1]"
unit_string = "%"
reported_value = 88.5

[[record]]
compound = "NC(=O)C12CC3CC(C1)C(OC(=O)N1CC[C@@H](Nc4ncccn4)C1)C(C3)C2 (single isomer, unassigned) [Example 62 Isomer 2]"
unit_string = "%"
reported_value = 78.7

[[record]]
compound = "CC(C)(C)OC(=O)NC1(Cc2ccccc2)CCN(C(=O)OC2C3CC4CC2CC(C(N)=O)(C4)C3)C1 (single isomer, unassigned) [Example 29 Isomer 2.2]"
unit_string = "%"
reported_value = 89.3

